- Test system: SNB-75
- TEST METHOD NOTES: NCI tumour cell line growth inhibition, 48 h
Calls of active or inactive are those of the source. No stated cut-off is given here; in the data, active = GI50 up to about 1.1 µM and inactive = higher.
The categories you may choose from are T = active, F = inactive

MOLECULE: Cc1ccc(Nc2[nH]c(=O)[nH]c(=O)c2C)cc1Cl
STUDY TARGET: SNB-75
ASSIGNED LABEL: F

Query: recorded result category for O=c1[nH]nc(Cc2ccc(Cl)cc2)n1/N=C/c1ccc([N+](=O)[O-])o1 in this test
F

Query: recorded result category for COCc1nc2c(OC)c(-c3nc4ccc(N5CCN(C)CC5)cc4[nH]3)cc(OC)c2[nH]1 in this test
F

Query: recorded result category for CN(C)c1ccc(-c2ccc(N(C)C)c3n[se]nc23)c2n[se]nc12 in this test
F

Query: recorded result category for CSc1n[nH]c2[nH]nc(C)c12 in this test
F

Query: recorded result category for O=[N+]([O-])c1cccnc1NCC1(CO)CCCC1 in this test
F

Query: recorded result category for COc1nc2c(c(O)c(C)c(=O)n2OC2OC(COC(C)=O)C(OC(C)=O)C(OC(C)=O)C2OC(C)=O)c(=O)n1C (centres undefined) in this test
F

Query: recorded result category for FC(F)(F)c1ccc(Cc2nc3cc4ccccc4cc3[nH]2)cc1 in this test
F

Query: recorded result category for COc1cccc(OC)c1NC(=O)C(=O)Nn1c(NNC(=O)c2ccncc2)nc2ccccc2c1=O in this test
F

Query: recorded result category for COc1cc(CNc2nc3cc(C(F)(F)F)ccc3nc2C)cc(OC)c1OC in this test
F

Query: recorded result category for O=C(c1ccco1)n1c2ccc(Br)cc2c2nc3ccccc3nc21 in this test
F

Query: recorded result category for CCOC(=O)c1nc2cc(C(F)(F)F)ccc2nc1Nc1ccc(OC)cc1 in this test
F

Query: recorded result category for Cc1cc2c3c(nc4ccccc42)C(=O)c2ccccc2-c3n1 in this test
F

Query: recorded result category for O=c1[nH]nc(Cc2ccc([N+](=O)[O-])cc2)[nH]1 in this test
F

Query: recorded result category for CCOC(=O)/C(=C/c1cccc(C#N)c1)N(CC)CC in this test
F

Query: recorded result category for C=CC(C)C1(CCCOCc2ccccc2)C(=S)N2CCC3(CC24CCCC14)OCCO3 (centres undefined) in this test
T

Query: recorded result category for COc1ccc(COCC[C@H](C)OC2OC(CO[Si](C)(C)C(C)(C)C)C(OC(=O)CCCN=[N+]=[N-])C(OC(=O)CCCN=[N+]=[N-])C2OC(=O)CCCN=[N+]=[N-])cc1 (some centres undefined) in this test
F

Query: recorded result category for C/C(=C\c1csc(C)n1)[C@@H]1C[C@@H]2O[C@]2(C)CCC[C@H](C)[C@H](O)[C@@H](C)C(=O)C(C)(C)[C@@H](O)CC(=O)O1 [PATUPILONE] in this test
T

Query: recorded result category for COc1cc2c(cc1O)C1Cc3ccc(OC)c(O)c3C[N+]1(C)CC2 (centres undefined) in this test
F

---

- Test system: NCI-H460
- TEST METHOD NOTES: NCI tumour cell line growth inhibition, 48 h
Activity calls are given as the source filed them. Rule as the data show it: active = GI50 up to about 1.1 µM and inactive = higher. Where a SMILES comes first, the peptide text is derived from it.
The categories you may choose from are active, inactive

Look over these answered cases.
MOLECULE: Cn1c(=O)nc2n(CCO)ccnc-2c1=O
ASSIGNED LABEL: inactive
//
MOLECULE: NC(=O)N/N=C(/c1nc2ccc([N+](=O)[O-])cc2nc1O)C(O)c1ccco1 (configuration not stated)
ASSIGNED LABEL: inactive
//
MOLECULE: COc1ccc(/C=C2\CCC(C)(CN(C)C)C2=O)cc1 (configuration not stated)
ASSIGNED LABEL: inactive
//
MOLECULE: Cc1ccc(S(=O)(=O)C(CC(NC=O)S(=O)(=O)c2ccc(C)cc2)NC=O)cc1 (configuration not stated)
ASSIGNED LABEL: inactive
//
MOLECULE: O=C1c2cccc3cc4ccccc4c(c23)C(=O)N1CCCNCCNCCCN1C(=O)c2cccc3cc4ccccc4c(c23)C1=O
ASSIGNED LABEL: active
//
MOLECULE: COc1cc(O)c2c(c1)C(O)C(O)CC1OC1C(=O)/C=C/CC(C)OC2=O (configuration not stated)
ASSIGNED LABEL: inactive

Query: recorded result category for NNC(=O)N/N=C1\C(=O)N(c2ccc(Cl)c(Cl)c2)C(=O)C(=O)C1c1nc2ccccc2s1 (configuration not stated) in this test
inactive

Query: recorded result category for CCC(C)C1NC(=O)C2CCCN2C(=O)CNC(=O)C(C)NC(=O)C(Cc2ccccc2)NC(=O)C(C(C)C)NC1=O (configuration not stated) (cyclo(GPIVFA); configuration not given here) in this test
inactive

Query: recorded result category for N#CCCn1[nH]c(=O)c(Cl)c(Cl)c1=O in this test
inactive

Query: recorded result category for OCCNc1ncnc2c1ncn2C1OC(CO)C(O)C1O (configuration not stated) in this test
inactive

Query: recorded result category for Cc1ccc(Nc2[nH]c(=O)[nH]c(=O)c2C)cc1Cl in this test
inactive

Query: recorded result category for O=C1C(Cl)=C(NCCOCCO)C(=O)c2c(O)ccc(O)c21 in this test
inactive

Query: recorded result category for C/C=C\C(CC(=O)NCCC1CN(S(=O)(=O)c2ccc(C)cc2)c2ccccc21)CC(=O)OC (configuration not stated) in this test
inactive

Query: recorded result category for O=c1[nH]nc(Cc2ccc([N+](=O)[O-])cc2)[nH]1 in this test
inactive

Query: recorded result category for O=C1C(=CNc2ccccc2Cl)C(=O)N(c2ccccc2)C(=O)N1c1ccccc1 in this test
inactive

Query: recorded result category for CC1=C(C(=O)Nc2ccccc2C)C(c2ccco2)C(C(=O)Nc2ccccc2C)=C(C)N1C in this test
inactive

Query: recorded result category for Cc1cccc(NS(=O)(=O)c2ccc3c(c2)OCCOCCOCCOCCO3)c1 in this test
inactive

Query: recorded result category for Nc1ncc(Sc2ccccc2C(=O)O)s1 in this test
inactive

Query: recorded result category for Cc1ccc(S(=O)(=O)N2c3ccccc3[C@H]3CCc4c([nH]c5ccccc45)[C@H]32)cc1 in this test
inactive

Query: recorded result category for CCN(CC)c1ccc(C2NC(=O)c3ccccc3N2)cc1 (configuration not stated) in this test
inactive

Query: recorded result category for COc1cc(/C=C2\C(=O)N(c3cccc(NC(C)=O)c3)C(c3ccccc3)S2(=O)=O)cc(OC)c1OC (configuration not stated) in this test
inactive

Query: recorded result category for COc1cccc(CCNc2c(C#N)c3n(c4ccccc4[n+]3C)c3ncccc23)c1 in this test
inactive

Query: recorded result category for O=[N+]([O-])c1cccnc1NCC1(CO)CCCC1 in this test
inactive

Query: recorded result category for COc1cc2c(cc1OCc1ccccc1)CNCC2 in this test
inactive

Query: recorded result category for CN1NC2(CCCCC2)ON=C1c1ccccc1 in this test
inactive

Query: recorded result category for COC(Cc1ccccc1)NC(C)=O (configuration not stated) in this test
inactive

Query: recorded result category for CCOC(=O)c1sc2c(c1OC(=O)c1ccccc1)c(=O)n(-c1ccccc1)c(=S)n2-c1ccccc1 in this test
inactive

Query: recorded result category for CC1=N[C@](C)(C2CC3C=CC2C3=O)COC1=O (some centres not stated) in this test
inactive

Query: recorded result category for CC(=O)CCN1CC2CN=NC2(C#N)C1 (configuration not stated) in this test
inactive

Query: recorded result category for NC(=S)N1N=C2CCCCCC[C@@H]2[C@H]1c1ccccc1 in this test
inactive
